# Test summary: Stability in mouse liver microsomes (MLM)
# Assay type: in vitro ADME
# Measurement conditions: C57BL/6, pH 7.4, n = 3
Could you please report measured microsomal CLint at 10 μM for the items listed next?
Give bare numbers, in µL/min/mg.

Compound: CC(C)[C@H](NC(=O)CC[C@@H](C)[C@H]1CC[C@H]2[C@@H]3[C@H](O)C[C@@H]4C[C@H](O)CC[C@]4(C)[C@H]3C[C@H](O)[C@]12C)C(=O)OC1CCN(C(=O)[C@H](Cc2ccc(F)cc2)NC(=O)c2cc3cc(Cl)ncc3[nH]2)CC1 [Conjugate 4]
microsomal CLint at 10 μM (µL/min/mg): 38

Now for another entry.
According to the records, this compound C[C@H](CCC(=O)N(C)CC(=O)OC1CCN(C(=O)[C@H](Cc2ccc(F)cc2)NC(=O)c2cc3cc(Cl)ncc3[nH]2)CC1)[C@H]1CC[C@H]2[C@@H]3[C@H](O)C[C@@H]4C[C@H](O)CC[C@]4(C)[C@H]3C[C@H](O)[C@]12C [Conjugate 2] displays microsomal CLint at 10 μM of 55.6
